# Test system: SR leukemia
# protocol: NCI-60 one-dose screen, 48 h (100 = growth as untreated, 0 = no growth, -100 = all killed)
# test-parameters: 10 µM unless noted
This is part of a sample that, as a whole, favours compounds with a hit. Of some 83,000 tested, about 20% had one in any assay. Activity calls are given as the source filed them. Rule for the calls: active = growth percent below 10; inactive = the rest.

[
  {
    "molecule": "Cc1cccc(NC(=O)Nc2ccc(-n3cnc4cc(-c5ccc(O)cc5)ccc43)cc2)c1",
    "growth": "19.7% (inactive)"
  },
  {
    "molecule": "COc1ccc(C(=O)NNc2nc(Cl)nc(N3CCN(C(c4ccccc4)c4ccccc4)CC3)n2)cc1",
    "growth": "-29.6% (active)"
  },
  {
    "molecule": "O=C(/C(=C\\c1ccc([N+](=O)[O-])cc1)S(=O)Cc1ccc(F)cc1)c1ccc(F)cc1 (stereo not given)",
    "growth": "8.47% (active)"
  },
  {
    "molecule": "c1ccc(-c2c(-c3ccccc3)[n+](Cc3ccc4ccccc4c3)c(-c3cccc4ccccc34)n2Cc2ccc3ccccc3c2)cc1",
    "growth": "-36.5% (active)"
  },
  {
    "molecule": "O=C(N/N=C/c1cc2ccccc2n2nnnc12)Nc1ccccc1",
    "growth": "87.4% (inactive)"
  },
  {
    "molecule": "COc1cc(OC)cc(C(=O)C[n+]2cccc3cc[nH]c32)c1",
    "growth": "116% (inactive)"
  },
  {
    "molecule": "COc1ccc(/C=C/c2nc(Nc3ccc(S(=O)(=O)Nc4cc(C)on4)cc3)c3ccccc3n2)cc1",
    "growth": "45.4% (inactive)"
  },
  {
    "molecule": "O=C1OC(Cc2ccccc2)C1c1ccccc1 (stereo not given)",
    "growth": "104% (inactive)"
  },
  {
    "molecule": "COc1ccc(C(=O)Nc2cccc(C3CCc4c(cc(OC)c(OC)c4OC)O3)c2)cc1 (stereo not given)",
    "growth": "21.6% (inactive)"
  },
  {
    "molecule": "CCc1ccc(CNc2ccc(N3CCOCC3)c(C(=O)O)c2)cc1",
    "growth": "104% (inactive)"
  }
]
